Sourced from PubChem BioAssay AID2060617

Tested on: 485368-065-R4-J2-PDC spheroids with HUVEC/MSC, viability
Experiment: Anticancer human tumor 485368-065-R4-J2-PDC patient-derived pancreatic carcinoma cell line growth inhibition [CLK]; active = viability on the fitted dose curve at most 10% of control; inactive = the rest
Conditions: second compound 1 µM; first compound 0.00316 µM
Pick one and only one: active, inactive

CCN1CCN(Cc2ccc(Nc3ncc(F)c(-c4cc(F)c5nc(C)n(C(C)C)c5c4)n3)nc2)CC1 + CN1CCN(c2cc(C(=O)Nc3cc4cc(-c5cnn(C)c5)ccc4cn3)ccn2)CC1 = active
Cn1ncnc1[C@H]1c2n[nH]c(=O)c3cc(F)cc(c23)N[C@@H]1c1ccc(F)cc1 + CNC(=O)c1ccc(Nc2nc(OC3CCCC3)c3c(-c4ccc5nc(C)oc5c4)c[nH]c3n2)c(OC)c1 = inactive

--- query ---
Ask | Could you check what this test reported for CCc1c2c(nc3ccc(O)cc13)-c1cc3c(c(=O)n1C2)COC(=O)[C@]3(O)CC + CNC(=O)c1ccc(Nc2nc(OC3CCCC3)c3c(-c4ccc5nc(C)oc5c4)c[nH]c3n2)c(OC)c1 ?
Reply | inactive

====

Tested on: 485368-065-R4-J2-PDC spheroids with HUVEC/MSC, viability
Assay: Anticancer human tumor 485368-065-R4-J2-PDC cell line growth inhibition [CLK];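 note: spheroids exposed to compounds for seven days; 100% = DMSO vehicle control wells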
Details: second compound 0.0316 µM; first compound 0.0316 µM; active compounds read low
Assign viability, T/C to each entry below.
Give bare numbers, in %.

Examples with answers:
COC1C=CCC(C)C(C)S(=O)(=O)NC(=O)c2ccc3c(c2)N(CC2CCC21)CC1(CCCc2cc(Cl)ccc21)CO3 (stereo not given) + CN1CCN(c2cc(C(=O)Nc3cc4cc(-c5cnn(C)c5)ccc4cn3)ccn2)CC1 = 105
CC1COCCN1c1cc(C2(S(C)(=N)=O)CC2)nc(-c2ccnc3[nH]ccc23)n1 (stereo not given) + CN1CCN(c2cc(C(=O)Nc3cc4cc(-c5cnn(C)c5)ccc4cn3)ccn2)CC1 = 102
Cn1ncnc1[C@H]1c2n[nH]c(=O)c3cc(F)cc(c23)N[C@@H]1c1ccc(F)cc1 + CN1CCN(c2cc(C(=O)Nc3cc4cc(-c5cnn(C)c5)ccc4cn3)ccn2)CC1 = 109
CCCS(=O)(=O)Nc1ccc(F)c(C(=O)c2c[nH]c3ncc(-c4ccc(Cl)cc4)cc23)c1F + CNC(=O)c1ccc(Nc2nc(OC3CCCC3)c3c(-c4ccc5nc(C)oc5c4)c[nH]c3n2)c(OC)c1 = 92.6

We next turn to a different molecule, shown below.
Ask | Query for 485368-065-R4-J2-PDC spheroids with HUVEC/MSC, viability: what viability, T/C does the record show for CCN1CCN(Cc2ccc(Nc3ncc(F)c(-c4cc(F)c5nc(C)n(C(C)C)c5c4)n3)nc2)CC1 + CNC(=O)c1ccc(Nc2nc(OC3CCCC3)c3c(-c4ccc5nc(C)oc5c4)c[nH]c3n2)c(OC)c1 ?
Reply | 103

====

Tested on: 485368-065-R4-J2-PDC spheroids with HUVEC/MSC, viability
Assay: Anticancer human tumor 485368-065-R4-J2-PDC cell line growth inhibition [CLK]; active = viability on the fitted dose curve at most 10% of control; inactive = the rest;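 note: spheroids exposed to compounds for seven days; 100% = DMSO vehicle control wells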
Settings: second compound 3.16 µM; first compound 1 µM
Pick one and only one: 1 = active, -1 = inactive

Completed entries (count: 3):
C=CC(=O)N1CCN(c2nc(=O)n(-c3c(C)ccnc3C(C)C)c3nc(-c4c(O)cccc4F)c(F)cc23)C(C)C1 (stereo unspecified) + CN1CCN(c2cc(C(=O)Nc3cc4cc(-c5cnn(C)c5)ccc4cn3)ccn2)CC1 = 1
C=C(F)C(=O)N1CCN(c2nc(OCC3CCCN3C)nc3c2CCN(c2cccc4cccc(Cl)c24)C3)CC1CC#N (stereo unspecified) + CN1CCN(c2cc(C(=O)Nc3cc4cc(-c5cnn(C)c5)ccc4cn3)ccn2)CC1 = 1
CCCS(=O)(=O)Nc1ccc(F)c(C(=O)c2c[nH]c3ncc(-c4ccc(Cl)cc4)cc23)c1F + CN1CCN(c2cc(C(=O)Nc3cc4cc(-c5cnn(C)c5)ccc4cn3)ccn2)CC1 = 1

Ask | Could you check what this test reported for CC(CO)NC(=O)c1cc(-c2ccc(Cl)cc2)nn(-c2cnn(C)c2)c1=O (stereo unspecified) + CNC(=O)c1ccc(Nc2nc(OC3CCCC3)c3c(-c4ccc5nc(C)oc5c4)c[nH]c3n2)c(OC)c1 ?
Reply | -1

Ask | Could you check what this test reported for COc1cccc2c1C(=O)c1c(O)c3c(c(O)c1C2=O)CC(O)(C(=O)CO)CC3OC1CC(N)C(O)C(C)O1 (stereo unspecified) + CN1CCN(c2cc(C(=O)Nc3cc4cc(-c5cnn(C)c5)ccc4cn3)ccn2)CC1 ?
Reply | 1

Ask | Could you check what this test reported for COC1C=CCC(C)C(C)S(=O)(=O)NC(=O)c2ccc3c(c2)N(CC2CCC21)CC1(CCCc2cc(Cl)ccc21)CO3 (stereo unspecified) + CNC(=O)c1ccc(Nc2nc(OC3CCCC3)c3c(-c4ccc5nc(C)oc5c4)c[nH]c3n2)c(OC)c1 ?
Reply | -1

Ask | Could you check what this test reported for Nc1ccccc1NC(=O)c1ccc(CNC(=O)OCc2cccnc2)cc1 + CN1CCN(c2cc(C(=O)Nc3cc4cc(-c5cnn(C)c5)ccc4cn3)ccn2)CC1 ?
Reply | 1

Ask | Could you check what this test reported for Nc1ccn(C2OC(CO)C(O)C2(F)F)c(=O)n1 (stereo unspecified) + CNC(=O)c1ccc(Nc2nc(OC3CCCC3)c3c(-c4ccc5nc(C)oc5c4)c[nH]c3n2)c(OC)c1 ?
Reply | -1

Ask | Could you check what this test reported for CCN1CCN(Cc2ccc(Nc3ncc(F)c(-c4cc(F)c5nc(C)n(C(C)C)c5c4)n3)nc2)CC1 + CNC(=O)c1ccc(Nc2nc(OC3CCCC3)c3c(-c4ccc5nc(C)oc5c4)c[nH]c3n2)c(OC)c1 ?
Reply | -1

Ask | Could you check what this test reported for C=CC(=O)N1CCN(c2nc(=O)n(-c3c(C)ccnc3C(C)C)c3nc(-c4c(O)cccc4F)c(F)cc23)C(C)C1 (stereo unspecified) + CNC(=O)c1ccc(Nc2nc(OC3CCCC3)c3c(-c4ccc5nc(C)oc5c4)c[nH]c3n2)c(OC)c1 ?
Reply | -1

Ask | Could you check what this test reported for Nc1ccccc1NC(=O)c1ccc(CNC(=O)OCc2cccnc2)cc1 + CNC(=O)c1ccc(Nc2nc(OC3CCCC3)c3c(-c4ccc5nc(C)oc5c4)c[nH]c3n2)c(OC)c1 ?
Reply | -1
